# Test system: Neonatal foreskin fibroblast (NFF) cells
# Assay Info: Mammalian cell cytotoxicity assay (sulforhodamine B)
# Type: cell-based, human
# Test Conditions: NFF IC50 divided by G. duodenalis BRIS/91/HEPU/1279 IC50
Experimental Readout: Selectivity

Prompt: Specify measured Selectivity for CCc1ccc(C(=O)Nc2ccc3c(c2)Oc2ccccc2C(=O)N3C)cc1 [SN00797643] .
Response: >20

Prompt: Specify measured Selectivity for CC1CCN(C(=O)c2oc3ccccc3c2NC(=O)c2ccc([N+](=O)[O-])o2)CC1 [SN00788467] .
Response: >166

Prompt: Specify measured Selectivity for Cc1cc(-c2cc(C(=O)Nc3ccc(N4CCN(C)CC4)nc3)c3cnn(C(C)C)c3n2)c(C)o1 [SN00776497] .
Response: 101

Prompt: Specify measured Selectivity for CN1C(=O)c2ccccc2Oc2cc(NC(=O)c3cc4ccccc4[nH]3)ccc21 [SN00797648] .
Response: >11

====

# Test system: G. duodenalis BRIS/91/HEPU/1279
# Assay Info: Primary Giardia screen at 10 µM (live-cell imaging, automated counting)
# Assay type: cell-based, Giardia duodenalis
# Test Conditions: 48 h, first singlicate assay
# Protocol: Each compound was assessed in singlicate, at a final concentration of 10 μM (0.4 μL of a 5 mM stock; diluted to a final volume of 200 μL in culture medium; 0.2% DMSO). […] Plates were incubated in sealed chambers filled with 3% O2, 5% CO2 in N2 and growth was assessed at 24 and 48 h using live cell imaging and automated counting as previously described. […] The reliability of these assays was assessed by calculating Z’ factors for each plate as previously described.
Consider the following compounds; for each one, report its % Inhibition n=1 48h.
Use % as the unit, but write only the number.

Prompt: Specify measured % Inhibition n=1 48h for CC(NC(=O)Cc1csc(Cc2ccccn2)n1)c1ccc(F)cc1 (centres unmarked) [SN00779507] .
Response: 0.0

Prompt: Specify measured % Inhibition n=1 48h for c1ccc(-n2nnnc2N2CCN(C3CC3)CC2)cc1 [SN00770081] .
Response: 0.0

Prompt: Specify measured % Inhibition n=1 48h for CC1CC(C)CN(CCCNC(=O)C2CC3CCCN3C23C(=O)Nc2ccccc23)C1 (centres unmarked) [SN00787674] .
Response: 38.8

Prompt: Specify measured % Inhibition n=1 48h for Cn1c(=O)c2cc(C(=O)NC3CCSC3=O)n(Cc3ccccc3)c2n(C)c1=O (centres unmarked) [SN00772623] .
Response: 25.0

Prompt: Specify measured % Inhibition n=1 48h for Cc1nc(N2CCCCC2)cc(N2CCN(C(=O)c3cccc(F)c3)CC2)n1 [SN00786431] .
Response: 7.0

====

# Test system: G. duodenalis BRIS/91/HEPU/1279
# Assay Info: Primary Giardia screen at 10 µM (live-cell imaging, automated counting)
# Type: cell-based, Giardia duodenalis
# Test Conditions: 48 h, first singlicate assay
So basically: is % Inhibition n=1 48h under 10%? Then condition met. Not under? Then condition not met.

Prompt: Answer whether the molecule COc1ccc(CNC(=O)N2CCC(c3ccn4ncc(C(=O)N5CCOCC5)c4c3)CC2)cc1 has % Inhibition n=1 48h strictly less than 10%
Response: condition met

Prompt: Answer whether the molecule COc1ccc(-c2nc(S(=O)(=O)CC(=O)Nc3ccc(F)cc3)c(-c3ccc(OC)cc3)[nH]2)cc1 has % Inhibition n=1 48h strictly less than 10%
Response: condition not met

Prompt: Answer whether the molecule Cc1ccc(-c2noc(-c3ccc(N4CCN(Cc5ccc6c(c5)OCO6)CC4)nc3)n2)cc1 has % Inhibition n=1 48h strictly less than 10%
Response: condition met

Prompt: Answer whether the molecule CC(C)OCCCNC(=O)Cn1c(=O)c(=O)n(Cc2ccncc2)c2ncccc21 has % Inhibition n=1 48h strictly less than 10%
Response: condition not met

Prompt: Answer whether the molecule CCOC(=O)c1csc(-n2nc(-c3cccc(OC(C)=O)c3)cc2C(F)(F)F)n1 has % Inhibition n=1 48h strictly less than 10%
Response: condition not met

Prompt: Answer whether the molecule CCOC(=O)CC(NC(=O)Nc1cc(F)c2[nH]c(=O)ccc2c1)c1ccccc1 (centres unmarked) has % Inhibition n=1 48h strictly less than 10%
Response: condition met

Prompt: Answer whether the molecule Cc1ccc(C)c(S(=O)(=O)Nc2ccc3nnc(-c4ccccc4)n3n2)c1 has % Inhibition n=1 48h strictly less than 10%
Response: condition met

Prompt: Answer whether the molecule Cc1noc(C)c1CCNC(=O)C1CCN(c2nc3cccnc3n(C)c2=O)CC1 has % Inhibition n=1 48h strictly less than 10%
Response: condition not met
